System: A673/TR/shEF
measurement notes: cell viability (LOESS-normalised, relative to median of negative controls) (log2 ratio); higher = more viable cells (less compound effect), active = hit call of the paper (over 3 MAD below the median)
condition parameters: 0.25 µM; library screen: screen1; EWS-FLI1 expression: high (no doxycycline); treatment time: 72 h
The campaign covered roughly 3,200 compounds. About 300 (9.4%) showed activity. The sample as a whole holds a higher share of actives than the screen did.
Labels: active, inactive

{"compound": "O=C1c2ccc(O)cc2OC(c2cc(O)c(O)c(O)c2)C1O (configuration not stated)", "label value": "inactive"}
{"compound": "CCN1CCCC(OC(=O)C(c2ccccc2)c2ccccc2)C1 (configuration not stated)", "label value": "inactive"}
{"compound": "CC(=O)OC1(C)CCC23CC1C(C)(C)[C@@H]2CC[C@H]3C (some centres not stated)", "label value": "inactive"}
{"compound": "COc1c(-c2coc3cc4c(cc3c2=O)CC(O)C(C)(C)O4)ccc2c1C=CC(C)(C)O2 (configuration not stated)", "label value": "inactive"}
{"compound": "Cc1cc(=O)oc2cc(O)ccc12", "label value": "inactive"}
{"compound": "COc1cccc(CN2CCN(Cc3c[nH]c4ccccc34)CC2)c1", "label value": "inactive"}
{"compound": "CC(C(=O)O)N1C(=O)C(=Cc2ccccn2)SC1=S (configuration not stated)", "label value": "active"}
{"compound": "CC(C)(O)[C@@H]1Cc2cc3ccc(=O)oc3cc2O1", "label value": "inactive"}
{"compound": "O=C(OCc1ccccc1)c1ccccc1", "label value": "inactive"}
{"compound": "NCC1COc2ccccc2O1 (configuration not stated)", "label value": "inactive"}
{"compound": "CC1C2C(CC3C4CC[C@@H]5CC(=O)CC[C@]5(C)C4CC[C@@]32C)OC12CC[C@@H](C)CO2 (some centres not stated)", "label value": "inactive"}
{"compound": "O=C(c1cc(-c2ccccc2)nc2ccccc12)N1CCN(c2ccccc2)CC1", "label value": "inactive"}
{"compound": "CCCCOCCOC(=O)CCCOc1ccc(Cl)cc1Cl", "label value": "inactive"}
{"compound": "Nc1ncnc2c1c(I)cn2[C@@H]1O[C@H](CO)[C@@H](O)[C@H]1O", "label value": "inactive"}
{"compound": "COc1ccccc1-c1coc2cc(O)ccc2c1=O", "label value": "inactive"}
{"compound": "CC1=C(O)C(=O)C(C(C)C)CC1 (configuration not stated)", "label value": "inactive"}
{"compound": "COc1ccc(NC(=O)/C(=C/c2cccnc2)NC(=O)c2cccs2)cc1", "label value": "inactive"}
{"compound": "O=C1C=CC2=C3c4cc(O)c(O)cc4CC3(O)COC2=C1 (configuration not stated)", "label value": "inactive"}
{"compound": "COc1cc(/C=C/C(=O)O)ccc1O", "label value": "inactive"}
{"compound": "Nc1ncnc2c1ncn2[C@@H]1O[C@H](CO)[C@@H](O)[C@H]1O", "label value": "inactive"}
{"compound": "COc1c(C)c2c(c(O)c1C/C=C(\\C)CCC(=O)O)C(=O)OC2", "label value": "inactive"}
{"compound": "O=C1C=C(O)c2ccccc2C1=O", "label value": "inactive"}
{"compound": "C[C@@H]1CC[C@@]2(OC1)O[C@H]1C[C@H]3[C@@H]4CC[C@H]5C[C@@H](O)CC[C@]5(C)[C@H]4CC(=O)[C@]3(C)[C@H]1[C@@H]2C", "label value": "inactive"}
{"compound": "CC1CN(C(=O)c2cc(-c3ccccc3)nc3ccccc23)CC(C)O1 (configuration not stated)", "label value": "active"}
{"compound": "COc1cc(CN2CCN(Cc3ccccc3F)CC2)cc(OC)c1OC", "label value": "inactive"}
{"compound": "Cc1cc(=O)oc2c(O)c(O)ccc12", "label value": "active"}
{"compound": "Cc1c(OCC(F)(F)F)ccnc1C[S+]([O-])c1nc2ccccc2[nH]1 (configuration not stated)", "label value": "inactive"}
{"compound": "O=C(c1cc(-c2ccccc2)nc2ccccc12)N1CCCC1", "label value": "inactive"}
{"compound": "CCC(C)CCCCC(=O)NC(CCNCS(=O)(=O)O)C(=O)NC(C(=O)NC(CCNCS(=O)(=O)O)C(=O)NC1CCNC(=O)C(C(C)O)NC(=O)C(CCNCS(=O)(=O)O)NC(=O)C(CCNCS(=O)(=O)O)NC(=O)C(CC(C)C)NC(=O)C(CC(C)C)NC(=O)C(CCNCS(=O)(=O)O)NC1=O)C(C)O (configuration not stated)", "label value": "inactive"}
{"compound": "Nc1ccccc1C(=O)CC(N)C(=O)O (configuration not stated)", "label value": "inactive"}
{"compound": "O=c1oc2cc3occc3cc2c2oc3cc4c(cc3c12)OCO4", "label value": "inactive"}
{"compound": "Cc1ccc(C(=O)Nc2ccc(S(=O)(=O)O)c3cc(S(=O)(=O)O)cc(S(=O)(=O)O)c23)cc1NC(=O)c1cccc(NC(=O)Nc2cccc(C(=O)Nc3cc(C(=O)Nc4ccc(S(=O)(=O)O)c5cc(S(=O)(=O)O)cc(S(=O)(=O)O)c45)ccc3C)c2)c1", "label value": "inactive"}
{"compound": "CC(=O)O[C@@H]1C=C[C@@]2(C)C(C[C@@H](OC(C)=O)[C@@]3(C)C4=CC(=O)O[C@@H](c5ccoc5)[C@]4(C)CCC23)C1(C)C (some centres not stated)", "label value": "inactive"}
{"compound": "COCCOC(=O)C1=C(C)NC2=C(C(=O)CCC2)C1c1ccc(C)s1 (configuration not stated)", "label value": "inactive"}
{"compound": "COC1=C(OC)C(=O)C(C/C=C(\\C)CC/C=C(\\C)CC/C=C(\\C)CC/C=C(\\C)CC/C=C(\\C)CC/C=C(\\C)CC/C=C(\\C)CC/C=C(\\C)CC/C=C(\\C)CCC=C(C)C)=C(C)C1=O", "label value": "inactive"}
{"compound": "COc1ccccc1CN1CCN(Cc2ccc(OC)c(OC)c2OC)CC1", "label value": "inactive"}
{"compound": "CC1(C)C=Cc2c(cc3occ(-c4ccc5c(c4)OCO5)c(=O)c3c2O)O1", "label value": "active"}

The reported numbers originate from the supplement of paper PMC6089552.
